I'd appreciate it if you could supply half-life values for the items below.
Experiment: Solution Stability Assay
Assay type: physicochemical
Details: potassium phosphate buffer with 30% acetonitrile, pH 6.5; read-out: Stability (t1/2, h) pH 6.5 (converted)
Just so you know, I need the unit written after the number.

Recorded result, CC(C)CNCNC(=O)[C@@H](CCC(F)(F)F)[C@@H](CCC(F)(F)F)C(=O)N[C@H]1N=C(c2ccccc2)c2ccccc2N(C)C1=O , half-life: 32 h

For reference, reported half-life for CN1C(=O)[C@@H](NC(=O)[C@H](CCC(F)(F)F)[C@H](CCC(F)(F)F)C(=O)NSCCN)N=C(c2ccccc2)c2ccccc21 stands at 29 h

half-life measured on CN1C(=O)[C@@H](NC(=O)[C@H](CCC(F)(F)F)[C@H](CCC(F)(F)F)C(=O)NCN2CCC(O)C2)N=C(c2ccccc2)c2ccccc21 (stereo partly drawn) = 15 h

====

Assay: Thermodynamic Equilibrium Aqueous Solubility Assay
Format: physicochemical
Conditions: sodium acetate buffer, pH 4, aqueous buffer, thermodynamic from solid; read-out: Solubility (mg/mL) pH 4.0
Experimental: Standards Preparation: The calibration standard was prepared by accurately weighing 0.5-0.7 mg of sample in 5 ml of methanol. If the material was not fully soluble in methanol, other solvents such as DMSO or mixed solvents were used. Test Sample Preparation: An excess amount of powder prodrug was equilibrated with 1 mL of buffer (50 mM potassium phosphate, pH 6.5 and 50 mM sodium acetate, pH 4.0) in a 2 mL glass vial. The solution was sonicated and vortexed for ˜30 seconds. […]
Exercise: state measured solubility at 24 h for each of the compounds provided.
Give the value, in units of mg/mL, as a plain number.

Value of measured solubility at 24 h for the entry NCCSNC(=O)[C@@H](CCC(F)(F)F)[C@@H](CCC(F)(F)F)C(=O)N[C@H]1N=C(c2ccccc2)c2ccccc2NC1=O : 0.52

Notebook: CN1CCN(CNC(=O)[C@@H](CCC(F)(F)F)[C@@H](CCC(F)(F)F)C(=O)N[C@H]2N=C(c3ccccc3)c3ccccc3N(C)C2=O)CC1 , solubility at 24 h read as 0.27

solubility at 24 h in this record for CN1C(=O)[C@@H](NC(=O)[C@H](CCC(F)(F)F)[C@H](CCC(F)(F)F)C(=O)NCN2CCC(N)CC2)N=C(c2ccccc2)c2ccccc21 : 0.56

Memo: CN1C(=O)[C@@H](NC(=O)[C@H](CCC(F)(F)F)[C@H](CCC(F)(F)F)C(=O)NCN2CCCCC2)N=C(c2ccccc2)c2ccccc21 , reported solubility at 24 h: 0.23

====

Assay: Solution Stability Assay
Format: physicochemical
Settings: sodium acetate buffer with 30% acetonitrile, pH 4; read-out: Stability (t1/2, h) pH 4.0 (converted)
READOUT LABEL: half-life

Memo: CC(C)[C@H](N)C(=O)OCN1C(=O)[C@@H](NC(=O)[C@H](CCC(F)(F)F)[C@H](CCC(F)(F)F)C(N)=O)N=C(c2ccccc2)c2ccccc21 , reported half-life: > 500 h

Memo: NC(=O)[C@@H](CCC(F)(F)F)[C@@H](CCC(F)(F)F)C(=O)N[C@H]1N=C(c2ccccc2)c2ccccc2N(COC(=O)Cc2ccc(OP(=O)(O)O)cc2)C1=O , reported half-life: > 500 h

So, NC(=O)[C@@H](CCC(F)(F)F)[C@@H](CCC(F)(F)F)C(=O)N[C@H]1N=C(c2ccccc2)c2ccccc2N(COC(=O)c2ccc(COP(=O)(O)O)cc2)C1=O ? Its half-life was > 500 h

Looking up CN1C(=O)[C@@H](NC(=O)[C@H](CCC(F)(F)F)[C@H](CCC(F)(F)F)C(=O)NCN2CCC(O)C2)N=C(c2ccccc2)c2ccccc21 (stereo partly drawn) , I found its half-life recorded as 97 h

Reported half-life ( NCCSNC(=O)[C@@H](CCC(F)(F)F)[C@@H](CCC(F)(F)F)C(=O)N[C@H]1N=C(c2ccccc2)c2ccccc2NC1=O ) = > 500 h

Form: compound = CN1C(=O)[C@@H](NC(=O)[C@H](CCC(F)(F)F)[C@H](CCC(F)(F)F)C(=O)NCN2CCC(N)CC2)N=C(c2ccccc2)c2ccccc21 ; half-life = 250 h

====

Test: Solution Stability Assay
Format: physicochemical
Conditions: sodium acetate buffer with 30% acetonitrile, pH 4; read-out: Stability (t1/2, h) pH 4.0 (converted)
READOUT LABEL: half-life (h)
The answer is to be given in h; state only the numeric part.

half-life reported for this molecule COC(=O)[C@@H](N)CSNC(=O)[C@@H](CCC(F)(F)F)[C@@H](CCC(F)(F)F)C(=O)N[C@H]1N=C(c2ccccc2)c2ccccc2N(C)C1=O : 73

half-life reported for this molecule C[C@H](N)C(=O)OCN1C(=O)[C@@H](NC(=O)[C@H](CCC(F)(F)F)[C@H](CCC(F)(F)F)C(N)=O)N=C(c2ccccc2)c2ccccc21 : 92

Per the record, CN1C(=O)[C@@H](NC(=O)[C@H](CCC(F)(F)F)[C@H](CCC(F)(F)F)C(=O)NSC[C@H](N)C(=O)O)N=C(c2ccccc2)c2ccccc21 has half-life of 376

The reported value for CC(C)(N)C(=O)OCN1C(=O)[C@@H](NC(=O)[C@H](CCC(F)(F)F)[C@H](CCC(F)(F)F)C(N)=O)N=C(c2ccccc2)c2ccccc21 in terms of half-life is 64

half-life for CN1C(=O)[C@@H](NC(=O)[C@H](CCC(F)(F)F)[C@H](CCC(F)(F)F)C(=O)NCN2CCC(N(C)C)C2)N=C(c2ccccc2)c2ccccc21 (some centres unmarked) is 334

Record summary for CN(C)CCSNC(=O)[C@@H](CCC(F)(F)F)[C@@H](CCC(F)(F)F)C(=O)N[C@H]1N=C(c2ccccc2)c2ccccc2N(C)C1=O : reported half-life = 334

====

For each entry below, report its solubility at 24 h value.
Test: Thermodynamic Equilibrium Aqueous Solubility Assay
Type: physicochemical
Conditions: sodium acetate buffer, pH 4, aqueous buffer, thermodynamic from solid; read-out: Solubility (mg/mL) pH 4.0
Answer in mg/mL, number only, no unit symbol.

Reported solubility at 24 h of CN1C(=O)[C@@H](NC(=O)[C@H](CCC(F)(F)F)[C@H](CCC(F)(F)F)C(=O)NCN2CCC(O)C2)N=C(c2ccccc2)c2ccccc21 (stereo partly drawn) [Example 20] : 0.43

Noted for CC(C)[C@H](N)C(=O)OCN1C(=O)[C@@H](NC(=O)[C@H](CCC(F)(F)F)[C@H](CCC(F)(F)F)C(N)=O)N=C(c2ccccc2)c2ccccc21 [Example 6] : its solubility at 24 h reads 0.3

# solubility at 24 h (compound: COC(=O)[C@@H](N)CSNC(=O)[C@@H](CCC(F)(F)F)[C@@H](CCC(F)(F)F)C(=O)N[C@H]1N=C(c2ccccc2)c2ccccc2N(C)C1=O [Example 14] ) is 0.42

Memo: CN1C(=O)[C@@H](NC(=O)[C@H](CCC(F)(F)F)[C@H](CCC(F)(F)F)C(=O)NCN2CCC(N(C)C)C2)N=C(c2ccccc2)c2ccccc21 (stereo partly drawn) [Example 21] , reported solubility at 24 h: 0.64

====

Assay: Thermodynamic Equilibrium Aqueous Solubility Assay
Type: physicochemical
Settings: potassium phosphate buffer, pH 6.5, aqueous buffer, thermodynamic from solid; read-out: Solubility (mg/mL) pH 6.5
READOUT LABEL: solubility at 24 h

Short answer for CN1C(=O)[C@@H](NC(=O)[C@H](CCC(F)(F)F)[C@H](CCC(F)(F)F)C(=O)NSCCN)N=C(c2ccccc2)c2ccccc21 : solubility at 24 h was > 3.4 mg/mL

CC(C)(N)C(=O)OCN1C(=O)[C@@H](NC(=O)[C@H](CCC(F)(F)F)[C@H](CCC(F)(F)F)C(N)=O)N=C(c2ccccc2)c2ccccc21 yielded solubility at 24 h of > 1.07 mg/mL

What the record says about NCCSNC(=O)[C@@H](CCC(F)(F)F)[C@@H](CCC(F)(F)F)C(=O)N[C@H]1N=C(c2ccccc2)c2ccccc2NC1=O : solubility at 24 h is > 0.47 mg/mL

Record Cc1cc(C)c(C(C)(C)CC(=O)OCN2C(=O)[C@@H](NC(=O)[C@H](CCC(F)(F)F)[C@H](CCC(F)(F)F)C(N)=O)N=C(c3ccccc3)c3ccccc32)c(OP(=O)(O)O)c1 . Reported solubility at 24 h: > 0.52 mg/mL

Sample CN1C(=O)[C@@H](NC(=O)[C@H](CCC(F)(F)F)[C@H](CCC(F)(F)F)C(=O)NCN2CCC(N)CC2)N=C(c2ccccc2)c2ccccc21 ; solubility at 24 h observed: > 1.9 mg/mL

Lookup result for CN1C(=O)[C@@H](NC(=O)[C@H](CCC(F)(F)F)[C@H](CCC(F)(F)F)C(=O)NCN2CCC(O)C2)N=C(c2ccccc2)c2ccccc21 (stereo partly drawn) ; measured solubility at 24 h: 0.39 mg/mL
